TESTED_ON: recombinant human prostanoid EP4 receptor (Homo sapiens (Human), UniProt P35408)
Sequence (P35408 whole entry): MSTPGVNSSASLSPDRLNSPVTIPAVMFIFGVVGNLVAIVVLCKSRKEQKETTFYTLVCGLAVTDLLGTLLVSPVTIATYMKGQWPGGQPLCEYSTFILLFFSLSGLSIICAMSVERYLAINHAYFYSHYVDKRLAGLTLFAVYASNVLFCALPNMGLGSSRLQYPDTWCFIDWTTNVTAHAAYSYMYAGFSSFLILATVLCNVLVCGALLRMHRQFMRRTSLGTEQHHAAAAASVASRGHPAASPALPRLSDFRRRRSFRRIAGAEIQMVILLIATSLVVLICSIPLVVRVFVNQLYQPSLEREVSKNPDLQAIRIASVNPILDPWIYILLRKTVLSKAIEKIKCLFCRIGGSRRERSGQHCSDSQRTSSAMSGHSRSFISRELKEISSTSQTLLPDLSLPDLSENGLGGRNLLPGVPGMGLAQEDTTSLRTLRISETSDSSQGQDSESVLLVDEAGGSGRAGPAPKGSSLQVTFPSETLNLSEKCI
PROCEDURE_DETAILS: Human prostanoid EP4 receptor binding assay ([3H]PGE2 displacement)
MEASUREMENT_SETUP: HEK-293(T) membranes, 0.5 nM [3H]PGE2, 120 min at 22° C.; NC: not calculable; read-out: In vitro potency EP4 (h) IC50

MOLECULE | TESTED_ON | IC50
Cc1cc(-c2cccc(F)c2)cc(CNc2c(C)ccc(OCC(=O)O)c2C)c1C | recombinant human prostanoid EP4 receptor (Homo sapiens (Human), UniProt P35408) | > 300 nM
O=C(O)COc1ccc(Cl)c(NCc2cc(-c3cccc(F)c3)ccc2F)c1Cl [I(r)] | recombinant human prostanoid EP4 receptor (Homo sapiens (Human), UniProt P35408) | > 300 nM
COc1c(C)cc(-c2cccc(F)c2)cc1CNc1c(C)ccc(OCC(=O)O)c1C | recombinant human prostanoid EP4 receptor (Homo sapiens (Human), UniProt P35408) | > 300 nM
Cc1c(F)cc(-c2cccc(F)c2)cc1CNc1c(F)ccc(OCC(=O)O)c1F | recombinant human prostanoid EP4 receptor (Homo sapiens (Human), UniProt P35408) | > 300 nM
Cc1cc(-c2cccc(F)c2)cc(CNc2c(C)ccc(OCC(=O)O)c2C)c1F | recombinant human prostanoid EP4 receptor (Homo sapiens (Human), UniProt P35408) | > 300 nM
O=C(O)COc1ccc(Cl)c(NCc2cc(-c3cccc(F)c3)ccc2F)c1F | recombinant human prostanoid EP4 receptor (Homo sapiens (Human), UniProt P35408) | > 300 nM
Cc1cc(-c2cccc(F)c2)cc(CNc2c(F)ccc(OCC(=O)O)c2C)c1C | recombinant human prostanoid EP4 receptor (Homo sapiens (Human), UniProt P35408) | > 300 nM
Cc1ccc(OCC(=O)O)c(C)c1NCc1cc(-c2cccc(F)c2)cc(F)c1C | recombinant human prostanoid EP4 receptor (Homo sapiens (Human), UniProt P35408) | > 300 nM
Cc1cc(-c2cccc(F)c2)cc(CNc2c(F)ccc(OCC(=O)O)c2C)c1F | recombinant human prostanoid EP4 receptor (Homo sapiens (Human), UniProt P35408) | > 300 nM

====

TESTED_ON: recombinant human prostanoid EP2 receptor (Homo sapiens (Human))
Sequence (P43116 whole entry): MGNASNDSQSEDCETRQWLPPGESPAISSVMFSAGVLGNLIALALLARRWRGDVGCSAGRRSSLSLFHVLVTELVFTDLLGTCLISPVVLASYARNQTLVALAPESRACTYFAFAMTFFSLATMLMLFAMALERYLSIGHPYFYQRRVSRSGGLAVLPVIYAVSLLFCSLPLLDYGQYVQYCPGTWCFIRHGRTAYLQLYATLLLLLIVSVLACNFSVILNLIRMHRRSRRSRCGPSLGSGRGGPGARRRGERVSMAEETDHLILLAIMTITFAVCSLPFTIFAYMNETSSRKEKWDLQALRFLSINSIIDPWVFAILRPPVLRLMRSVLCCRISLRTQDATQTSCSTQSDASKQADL
PROCEDURE_DETAILS: Human prostanoid EP2 receptor cellular functional assay (cAMP, HTRF)
MEASUREMENT_SETUP: CHO cells expressing recombinant human EP2; cAMP by HTRF; 30 min, 37° C.; read-out: In vitro functional assay EP2 (h) EC50
pEC50: −log10 of the molar value.

COMPOUND | pEC50
Cc1cc(CNc2c(F)ccc(OCC(=O)O)c2F)cc(-c2cccc(F)c2)c1 | 7.46
O=C(O)COc1cccc(CN(Cc2ccc(-n3cccn3)cc2)S(=O)(=O)c2cccnc2)c1 [CP-544326, reference compound] | 7.34
Cc1cc(CNc2c(F)ccc(OCC(=O)O)c2C)c(F)c(-c2cccc(F)c2)c1 | 7.46
O=C(O)COc1ccc(Cl)c(NCc2cc(-c3cccc(F)c3)ccc2F)c1F | 7.14

====

PROCEDURE_DETAILS: Solubility at equilibrium
Format: physicochemical
MEASUREMENT_SETUP: thermodynamic from solid; in the diluent, room temperature, n=1, HPLC quantification
Each item that follows carries a reported solubility.

MOLECULE | solubility
COC(=O)COc1ccc(F)c(NCc2cc(-c3cccc(F)c3)ccc2F)c1F | 6780 µg/mL
O=C(O)COc1cccc(CN(Cc2ccc(-n3cccn3)cc2)S(=O)(=O)c2cccnc2)c1 [PF-04217329, taprenepag, reference compound] | 542 µg/mL
CC(C)OC(=O)COc1ccc(F)c(NCc2cc(-c3cccc(F)c3)ccc2F)c1F | 711 µg/mL
CCOC(=O)COc1ccc(F)c(NCc2cc(-c3cccc(F)c3)ccc2F)c1F | 8120 µg/mL
